molecular target: CBP (Homo sapiens, UniProt Q92793); construct: host or cells: A549 CBP HiBit cells; test: CBP degradation, HiBit technology in A549 CBP HiBit cells (24 h); format: cell-based; settings: 24 hrs post treatment
Sequence (Q92793 whole entry): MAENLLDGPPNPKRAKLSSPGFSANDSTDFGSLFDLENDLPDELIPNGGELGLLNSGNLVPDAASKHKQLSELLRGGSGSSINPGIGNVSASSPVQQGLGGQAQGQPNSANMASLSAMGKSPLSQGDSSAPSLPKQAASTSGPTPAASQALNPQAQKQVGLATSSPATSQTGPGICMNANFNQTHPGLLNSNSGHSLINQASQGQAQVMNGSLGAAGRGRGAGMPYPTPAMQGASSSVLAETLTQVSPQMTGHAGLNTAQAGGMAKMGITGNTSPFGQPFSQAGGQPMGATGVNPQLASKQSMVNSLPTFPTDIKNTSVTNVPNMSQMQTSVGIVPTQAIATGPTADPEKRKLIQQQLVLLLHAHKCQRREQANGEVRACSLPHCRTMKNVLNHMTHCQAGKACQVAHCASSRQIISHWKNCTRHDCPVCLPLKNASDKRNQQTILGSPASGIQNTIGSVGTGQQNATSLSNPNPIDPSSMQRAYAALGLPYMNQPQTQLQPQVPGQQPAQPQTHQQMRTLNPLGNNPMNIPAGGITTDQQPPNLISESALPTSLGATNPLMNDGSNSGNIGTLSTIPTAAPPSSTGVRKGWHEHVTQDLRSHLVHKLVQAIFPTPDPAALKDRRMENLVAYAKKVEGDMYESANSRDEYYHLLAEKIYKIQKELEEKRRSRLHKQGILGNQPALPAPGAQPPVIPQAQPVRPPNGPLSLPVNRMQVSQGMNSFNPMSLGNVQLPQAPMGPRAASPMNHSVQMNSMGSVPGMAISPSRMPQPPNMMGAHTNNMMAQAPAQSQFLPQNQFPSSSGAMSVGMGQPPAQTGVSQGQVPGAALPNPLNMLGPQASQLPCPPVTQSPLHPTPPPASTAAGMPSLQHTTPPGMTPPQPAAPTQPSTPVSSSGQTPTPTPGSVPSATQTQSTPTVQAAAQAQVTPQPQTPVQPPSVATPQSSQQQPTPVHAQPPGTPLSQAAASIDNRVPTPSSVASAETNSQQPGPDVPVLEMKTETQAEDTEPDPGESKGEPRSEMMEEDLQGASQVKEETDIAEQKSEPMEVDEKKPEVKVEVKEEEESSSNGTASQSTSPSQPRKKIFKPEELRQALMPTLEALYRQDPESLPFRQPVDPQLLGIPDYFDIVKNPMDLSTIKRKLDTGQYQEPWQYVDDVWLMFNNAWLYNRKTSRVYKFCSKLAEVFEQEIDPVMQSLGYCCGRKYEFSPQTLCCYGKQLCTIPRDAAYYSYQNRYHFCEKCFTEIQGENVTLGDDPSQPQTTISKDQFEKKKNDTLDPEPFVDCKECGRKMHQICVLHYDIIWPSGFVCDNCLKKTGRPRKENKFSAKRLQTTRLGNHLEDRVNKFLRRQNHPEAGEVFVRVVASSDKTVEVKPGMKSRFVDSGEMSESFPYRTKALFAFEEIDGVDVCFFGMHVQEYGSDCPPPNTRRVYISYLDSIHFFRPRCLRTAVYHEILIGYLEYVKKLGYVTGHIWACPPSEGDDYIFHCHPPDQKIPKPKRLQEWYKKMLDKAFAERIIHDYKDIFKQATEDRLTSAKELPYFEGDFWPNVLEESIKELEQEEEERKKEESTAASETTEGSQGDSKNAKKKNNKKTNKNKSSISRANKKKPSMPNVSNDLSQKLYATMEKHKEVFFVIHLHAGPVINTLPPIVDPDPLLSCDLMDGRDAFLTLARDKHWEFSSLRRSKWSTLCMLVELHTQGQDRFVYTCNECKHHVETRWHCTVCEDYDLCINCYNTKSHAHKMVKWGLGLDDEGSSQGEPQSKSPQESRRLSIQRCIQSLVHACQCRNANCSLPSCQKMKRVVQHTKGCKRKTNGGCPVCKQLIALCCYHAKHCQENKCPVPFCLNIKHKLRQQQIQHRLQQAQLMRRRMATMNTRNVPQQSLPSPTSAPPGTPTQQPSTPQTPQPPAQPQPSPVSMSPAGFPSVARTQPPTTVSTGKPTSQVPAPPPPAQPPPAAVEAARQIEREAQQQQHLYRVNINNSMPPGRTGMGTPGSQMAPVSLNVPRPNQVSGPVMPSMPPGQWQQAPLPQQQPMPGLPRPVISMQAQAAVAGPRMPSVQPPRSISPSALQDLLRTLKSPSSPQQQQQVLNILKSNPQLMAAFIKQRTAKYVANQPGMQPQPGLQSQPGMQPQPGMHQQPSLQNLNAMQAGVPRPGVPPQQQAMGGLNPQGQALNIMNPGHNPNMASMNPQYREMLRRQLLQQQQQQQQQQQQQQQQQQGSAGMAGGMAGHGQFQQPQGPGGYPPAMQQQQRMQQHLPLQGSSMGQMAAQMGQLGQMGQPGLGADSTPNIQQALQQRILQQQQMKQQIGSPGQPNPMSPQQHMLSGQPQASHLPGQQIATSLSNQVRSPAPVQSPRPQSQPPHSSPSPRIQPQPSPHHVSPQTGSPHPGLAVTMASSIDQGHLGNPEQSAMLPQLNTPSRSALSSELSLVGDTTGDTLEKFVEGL
Please provide measured DC50 for the entries that follow.

Query: Quote DC50 with test system CBP (Homo sapiens, UniProt Q92793) for Cc1cc2c(N3CCCc4nc(-c5ccc(C(=O)NCC#Cc6cc7c([C@@H]8CCC(=O)NC8=O)cccc7o6)nc5)ncc43)cc(C3CCOCC3)cc2n(C)c1=O
Reply: > 1000 nM

Query: Provide the reported DC50 (system: CBP (Homo sapiens, UniProt Q92793)) for Cc1cc(-c2cc3cccc(-c4cc(F)c5c(c4)n(C)c(=O)n5C)c3cn2)cnc1C(=O)NCC#Cc1ccc2occ(C3CCC(=O)NC3=O)c2c1 (stereo not shown)
Reply: > 1000 nM

Query: For CBP (Homo sapiens, UniProt Q92793), give the measured DC50 of the entry Cc1cc2c(N3CCCc4nc(-c5ccc(C(=O)NCC#Cc6cc7c(C8CCC(=O)NC8=O)cccc7o6)nc5)ncc43)cc(C3CCOCC3)nc2n(C)c1=O (stereo not shown)
Reply: > 1000 nM

Query: Report DC50 under test system CBP (Homo sapiens, UniProt Q92793) for Cc1cc2c(N3CCOc4cc(-c5ccc(C(=O)NCC#Cc6ccc7occ(C8CCC(=O)NC8=O)c7c6)nc5)c(F)cc43)cc(N3CC4(COC4)C3)cc2n(C)c1=O (stereo not shown) .
Reply: > 1000 nM

Query: Enter measured DC50, system CBP (Homo sapiens, UniProt Q92793), for the compound shown: Cc1cc(-c2ncc3c(n2)OCCN3c2ccc3c(c2)n(C)c(=O)n3C)cnc1C(=O)NCC#Cc1cc2c([C@H]3CCC(=O)NC3=O)cccc2o1
Reply: > 1000 nM

Query: Report value only: DC50, CBP (Homo sapiens, UniProt Q92793), Cc1cc2c(N3CCOc4nc(-c5ccc(C(=O)NCC#Cc6cc7c(C8CCC(=O)NC8=O)cccc7o6)nc5)ncc43)cc(C3CCOCC3)nc2n(C)c1=O (stereo not shown)
Reply: > 1000 nM

Query: Using CBP (Homo sapiens, UniProt Q92793) as the test system, report measured DC50 of Cc1cc2c(-c3cn(C)c(=O)c4cc(-c5ccc(C(=O)NCC#Cc6cc7c(C8CCC(=O)NC8=O)cccc7o6)nc5)ncc34)nc(N3CCOCC3)cc2n(C)c1=O (stereo not shown) .
Reply: > 1000 nM

Query: # lookup: CBP (Homo sapiens, UniProt Q92793) DC50, key = Cn1c(=O)n(C)c2c(N3CCC(C)(O)CC3)cc(-c3cccc4cc(-c5ccc(C(=O)NCC#Cc6cccc(NC7CCC(=O)NC7=O)c6)nc5)ncc34)cc21 (stereo not shown)
Reply: 1 to 9.9 nM

Query: Fill in DC50 for Cn1c(=O)n(C)c2cc(C3=CC(C)(C)Oc4cc(-c5ccc(C(=O)NCC#Cc6cc7c(C8CCC(=O)NC8=O)cccc7o6)nc5)ncc43)ccc21 (stereo not shown) tested with CBP (Homo sapiens, UniProt Q92793).
Reply: > 1000 nM

Query: GET DC50 | system: CBP (Homo sapiens, UniProt Q92793) | item: Cn1c(=O)n(C)c2c(N3CC4CCC(C3)O4)nc(-c3cccc4cc(-c5ccc(C(=O)NCC#Cc6ccc7occ(C89CC(C8)C(=O)NC9=O)c7c6)nc5)ncc34)cc21
Reply: > 1000 nM

Query: State DC50 (CBP (Homo sapiens, UniProt Q92793)) of Cn1c(=O)n(C)c2c(N3CC4(COC4)C3)nc(-c3cccc4cc(-c5ccc(C(=O)NCC#Cc6ccc7occ(C8CCC(=O)NC8=O)c7c6)nc5)ncc34)cc21 (stereo not shown) .
Reply: > 1000 nM

Query: Report value: DC50, system: CBP (Homo sapiens, UniProt Q92793), compound: Cn1c(=O)n(C)c2c(N3C4COCC3C4)nc(-c3cccc4cc(-c5ccc(C(=O)NCC#Cc6ccc7occ(C8CCC(=O)NC8=O)c7c6)nc5)ncc34)cc21 (stereo not shown)
Reply: > 1000 nM

Query: Report the value of DC50 obtained on CBP (Homo sapiens, UniProt Q92793) for Cc1cc2c(N3CCOc4nc(-c5ccc(C(=O)NCC#Cc6cc7c(C8CCC(=O)NC8=O)cccc7o6)nc5)ncc43)cc(C3CCOCC3)cc2n(C)c1=O (stereo not shown) .
Reply: 100 to 999 nM

Query: GET DC50 | system: CBP (Homo sapiens, UniProt Q92793) | item: Cc1cc(-c2ncc3c(n2)CCCN3c2ccc3c(c2)n(C)c(=O)n3C)cnc1C(=O)NCC#Cc1ccc2occ(C3CCC(=O)NC3=O)c2c1 (stereo not shown)
Reply: > 1000 nM

Query: # lookup: CBP (Homo sapiens, UniProt Q92793) DC50, key = Cn1c(=O)n(C)c2cc(N3CCOc4nc(-c5ccc(C(=O)NCC#Cc6cc7cccc(C8CCC(=O)NC8=O)c7o6)nc5)ncc43)ccc21 (stereo not shown)
Reply: > 1000 nM

Query: GET DC50 | system: CBP (Homo sapiens, UniProt Q92793) | item: Cc1cc2c(N3CCCc4nc(-c5ccc(C(=O)NCC#Cc6cc7c(C8CCC(=O)NC8=O)cccc7o6)nc5)ncc43)nc(N3CC(C)(O)C3)cc2n(C)c1=O (stereo not shown)
Reply: > 1000 nM

Query: Check CBP (Homo sapiens, UniProt Q92793) data and give DC50 for Cc1cc(-c2cc3cccc(-c4ccc5c(c4)n(C)c(=O)n5C)c3cn2)cnc1C(=O)NCC#Cc1ccc2occ(C3CCC(=O)NC3=O)c2c1 (stereo not shown) .
Reply: > 1000 nM

Query: Check CBP (Homo sapiens, UniProt Q92793) data and give DC50 for Cn1nc(C2CCC(=O)NC2=O)c2cc(C#CCNC(=O)c3ccc(-c4ncc5c(n4)OCCN5c4ccc5c(c4)n(C)c(=O)n5C)cn3)ccc21 (stereo not shown) .
Reply: > 1000 nM

Query: Report value only: DC50, CBP (Homo sapiens, UniProt Q92793), Cc1cc2c(N3CCCc4nc(-c5ccc(C(=O)NCC#Cc6ccc7occ(C8CCC(=O)NC8=O)c7c6)nc5)ncc43)nc(N3CC4CCC(C3)O4)cc2n(C)c1=O (stereo not shown)
Reply: > 1000 nM

Query: Name the recorded DC50 of Cc1cc2c(N3CCCc4nc(-c5ccc(C(=O)NCC#Cc6cc7c(C8CCC(=O)NC8=O)cccc7o6)nc5)ncc43)cc(C3(F)CCOCC3)cc2n(C)c1=O (stereo not shown) , assay system CBP (Homo sapiens, UniProt Q92793).
Reply: > 1000 nM

Query: Param request: DC50 | system CBP (Homo sapiens, UniProt Q92793) | item CC(C)c1cc(-c2cccc3cc(-c4ccc(C(=O)NCC#Cc5cc6c(F)ccc(C7CCC(=O)NC7=O)c6o5)nc4)ncc23)cc2c1n(C)c(=O)n2C (stereo not shown)
Reply: > 1000 nM

Query: Write DC50 of Cc1cc2c(-c3cccc4cc(-c5ccc(C(=O)NCC#Cc6ccc7occ(C8CCC(=O)NC8=O)c7c6)nc5)ncc34)nc(OC(C)C)cc2n(C)c1=O (stereo not shown) ; system used: CBP (Homo sapiens, UniProt Q92793)
Reply: > 1000 nM
